- Study Target: human Nav1.1 (Homo sapiens)
- Construct: host or cells: HEK293
- Experimental Details: Amplification of Nav1.1-derived voltage-dependent sodium current (Nav1.1 current), cell line stably expressing human Nav1.1, automated patch clamp
- Assay type: cell-based
- Condition Notes: Concentration 1 μM (Test Result 7); read-out: Nav1.1 current amplification rate (%)
Quantity: activation at 1 µM (%)

Use the examples below as a reference point.
>>> reported("CCC1CC=C(c2ccc(=O)n(CC(=O)Nc3ccn4ncnc4c3)n2)CC1 (stereo not drawn)")
115
>>> reported("O=C(Cn1nc(N2CCC3(CCC3)CC2)ccc1=O)Nc1ccc2cncnc2c1")
155
>>> reported("CCC1CC=C(c2ccc(=O)n(CC(=O)Nc3ccc4ncnn4c3)n2)CC1 (stereo not drawn)")
80
>>> reported("CC1CC=C(c2ccc(=O)n(CC(=O)Nc3ccn4ncnc4c3F)n2)CC1 (stereo not drawn)")
24
>>> reported("N#Cc1ccc(NC(=O)Cn2nc(N3CCC4(CC4)C(F)(F)C3)ccc2=O)cn1")
12
>>> reported("CC1CC=C(c2ccc(=O)n(CC(=O)Nc3cccc(N4CCOCC4)c3)n2)CC1 (stereo not drawn)")
33
>>> reported("CN(CC1(C)CC1)c1ccc(=O)n(CC(=O)N2CCc3c(N4CCOCC4)cccc32)n1")
42
>>> reported("CN(c1ccc(=O)n(CC(=O)N2CCc3c(N4CCOCC4)cccc32)n1)C1CCCC1")
62
>>> reported("CC1CC=C(c2ccc(=O)n(CC(=O)Nc3ccc4cnccc4c3)n2)CC1 (stereo not drawn)")
223
>>> reported("O=C(Cn1nc(N2CCC3(CC3)C(F)(F)C2)ccc1=O)Nc1ccn2ncnc2c1")
17

[P] CC1CC=C(c2ccc(=O)n(CC(=O)Nc3ccc(C#N)cc3F)n2)CC1 (stereo not drawn)
[Q] CN(c1ccc(=O)n(CC(=O)Nc2ccn3ncnc3c2)n1)C1CCCC1
[R] CN(c1ccc(=O)n(CC(=O)N2CCc3c(-c4ccnnc4)cccc32)n1)C1CCCC1
Request: Put these in order: smallest activation at 1 µM first, largest last. Answer by listing the labels in the order asked for.
Response: Q, P, R
(Q: 13%, P: 70%, R: 247%)

Attribution: patent US20220347175A1
